The measured values listed here are drawn from the supplement of paper PMC10338343.

- Tested on: MILI (PIWIL2) piRISC loaded with L1MC piRNA (26 nt);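 note: 1 nM active piRISC with 0.1 nM target library at 33 °C single turnover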
- Procedure Summary: pre-steady-state target cleavage rate (min^-1); guide: L1MC piRNA 5'p-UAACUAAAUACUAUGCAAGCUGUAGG; higher = faster piRNA-guided slicing of the target
- Settings: auxiliary factor: 500 nM mouse GTSF1
Readings of pre-steady-state target cleavage rate for the listed sequences
Quantity Kind: pre-steady-state target cleavage rate

{"Sequence": "UCCUGGAUGUCCUAGCAUAGUAAUUAGUUA", "Readout Value": 0.0282}
{"Sequence": "UCCUGGAUCUCGUUGCAUAGUAUUUUCAAA", "Readout Value": 0.0482}
{"Sequence": "UCCUGGAUGUGCUUGCAUAGUAAUUAGUAA", "Readout Value": 0.0721}
{"Sequence": "UCCUGGAUCAGCUUCGCAUAGUAUUUAGUUA", "Readout Value": 0.309}
{"Sequence": "UCCUGGAUGUCGAAGCAUAGUAUUUAGUCA", "Readout Value": 0.0245}
{"Sequence": "UCCUGGAACAGCUUGGAUAGUAUUUAGAUA", "Readout Value": 0.137}
{"Sequence": "UCCUCCUACAGGAAGCAUAGUAUUUAGUAA", "Readout Value": 0.247}
{"Sequence": "UCCUCCUACAGCUAGGAUAGUAUUUAGUUA", "Readout Value": 0.276}
{"Sequence": "UCCUGGAUGUGCUUGCAUAGUAUUUCGUUA", "Readout Value": 0.0261}
{"Sequence": "UCCUGGAUGAGCUUGGCAUAGUAUUUAGUUA", "Readout Value": 0.224}
{"Sequence": "UCCUGCUACAGCUUGCAUGAGUAUUUAGUUA", "Readout Value": 0.0058}
{"Sequence": "UCCUGGAUGUCCUAGCAUAGUAUUUAGAUA", "Readout Value": 0.0302}
{"Sequence": "UCCUGGAUGUGCUUGCAUAGUAUUUAGUUU [g2:g20:cont:t1U]", "Readout Value": 0.158}

----------
- Tested on: MILI (PIWIL2) piRISC loaded with piRNA #1 (26 nt);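 note: 1 nM active piRISC with 0.1 nM target library at 33 °C single turnover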
- Procedure Summary: pre-steady-state target cleavage rate (min^-1); guide: piRNA #1 5'p-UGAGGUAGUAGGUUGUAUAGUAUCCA; MIWI and MILI are mouse PIWI proteins and EfPiwi is from a freshwater sponge; tags in brackets are library labels; higher = faster piRNA-guided slicing of the target
- Settings: auxiliary factor: 500 nM mouse GTSF1
Quantity Kind: pre-steady-state target cleavage rate

{"Sequence": "GGAGACCUAUCUAUACAACCUACUAUCUCA", "Lt Gt Eq": "=", "Readout Value": 0.0794}
{"Sequence": "GGAGACGUUACUAUACAACCUACUACCACA", "Lt Gt Eq": "=", "Readout Value": 0.191}
{"Sequence": "GGAGACCUAUGUAUACAACCUACAAGCUCA", "Lt Gt Eq": "=", "Readout Value": 0.0033}
{"Sequence": "GGAGACCAUACUAUAGCAACCUACUACCUCA", "Lt Gt Eq": "=", "Readout Value": 0.191}
{"Sequence": "GGAGACCUAUCUAUACAACCUACUACCUAA", "Lt Gt Eq": "=", "Readout Value": 0.0733}
{"Sequence": "GGAGACCAUAGUAUUCAACCUACUACCUCA", "Lt Gt Eq": "=", "Readout Value": 0.11}
{"Sequence": "GGAGACGAUACUAUACAACCUAGAACCUCA", "Lt Gt Eq": "=", "Readout Value": 0.0145}
{"Sequence": "GGAGACCUAUGUAUAGUACCUACUACCUCA", "Lt Gt Eq": "=", "Readout Value": 0.013}
{"Sequence": "GGAGUGGAUAGUAUACAACCUUCUACCUCA", "Lt Gt Eq": "=", "Readout Value": 0.0115}
{"Sequence": "GGAGAGGAUACUAUCAACCUACUACCUCA", "Lt Gt Eq": "=", "Readout Value": 0.154}
{"Sequence": "GGAGACCUAUCUAUAGAACCUACUACGUCA", "Lt Gt Eq": "=", "Readout Value": 0.0269}
{"Sequence": "GGAGACCUAUGAUUACAACCUACUACCUACA", "Lt Gt Eq": "=", "Readout Value": 0.00666}
{"Sequence": "GGAGACCAUACUAUAACAACCUACUACCUCA", "Lt Gt Eq": "=", "Readout Value": 0.133}
{"Sequence": "GGAGACGAUACUUUACAACCUUCUACCUCA", "Lt Gt Eq": "=", "Readout Value": 0.00805}
{"Sequence": "GGAGACCUUACUAUACAACCUACUACCAGA", "Lt Gt Eq": "=", "Readout Value": 0.107}
{"Sequence": "GGAGACCUAUGAUAACCAACCUACUACCUCA", "Lt Gt Eq": "=", "Readout Value": 0.00371}
{"Sequence": "GGAGAGGAUACUAUACAACCUACUACCAUCA", "Lt Gt Eq": "=", "Readout Value": 0.0616}
{"Sequence": "GGAGACCAUUCUAUACAUCCUACUACCUCA", "Lt Gt Eq": "=", "Readout Value": 0.235}
{"Sequence": "GGAGACCUAUGUAUACAACCUACUACCUCCA", "Lt Gt Eq": "=", "Readout Value": 0.0928}
{"Sequence": "GGAGACCUAACUAACAACCUACUACCUCA", "Lt Gt Eq": "=", "Readout Value": 0.0182}
{"Sequence": "GGAGACCUAUGAUAUGUUGGUACUACCUCA [g2:g10:cont:t1A]", "Lt Gt Eq": "<", "Readout Value": 0.0001}
{"Sequence": "GGAGACCUAUGAAUACAACCUACUACCUUA", "Lt Gt Eq": "=", "Readout Value": 0.00551}
{"Sequence": "GGAGACCUUACUAUAGAACCUACUACCUGA", "Lt Gt Eq": "=", "Readout Value": 0.0254}
{"Sequence": "GGAGAGGAAACUAUACUACCUACUACCUCA", "Lt Gt Eq": "=", "Readout Value": 0.239}
{"Sequence": "GGAGUGGAAACUAUACAACCUACUAGCUCA", "Lt Gt Eq": "=", "Readout Value": 0.0453}
{"Sequence": "GGAGACCAUACUAUACAACGUACAACCUCA", "Lt Gt Eq": "=", "Readout Value": 0.0214}
{"Sequence": "GGAGUGGUUACUAUACAACCUACUACCUGA", "Lt Gt Eq": "=", "Readout Value": 0.0722}
{"Sequence": "GGAGACCAUACUAUACAACCUACUACCUCU [g2:g23:cont:t1U]", "Lt Gt Eq": "=", "Readout Value": 0.254}
{"Sequence": "GGAGUGGAUACUAUACAACCUACUACCUCA [g2:g26:cont:t1A]", "Lt Gt Eq": "=", "Readout Value": 0.2}
{"Sequence": "GGAGUGGAUUCUAUACAACCUACUAGCUCA", "Lt Gt Eq": "=", "Readout Value": 0.0603}
{"Sequence": "GGAGAGGAUACUAAACAACCAACUACCUCA", "Lt Gt Eq": "=", "Readout Value": 0.00772}
{"Sequence": "GGAGAGGUUACAAUACAACCUACUACCUCA", "Lt Gt Eq": "=", "Readout Value": 0.181}
{"Sequence": "GGAGUGGAUACUAAACAACCUAGUACCUCA", "Lt Gt Eq": "=", "Readout Value": 0.0567}
{"Sequence": "GGAGACCUAUGAAUACAACCUACUACCUAA", "Lt Gt Eq": "=", "Readout Value": 0.00505}
{"Sequence": "GGAGACCAUACUAUACAACCUACCUACCUCA", "Lt Gt Eq": "=", "Readout Value": 0.129}
{"Sequence": "GGAGACCUUUCUAUACUACCUACUACCUCA", "Lt Gt Eq": "=", "Readout Value": 0.0739}
{"Sequence": "GGAGAGGAUUCUAUACAACCAACUACCUCA", "Lt Gt Eq": "=", "Readout Value": 0.00507}
{"Sequence": "GGAGACCUAACUAUACAACCUACUACCGUCA", "Lt Gt Eq": "=", "Readout Value": 0.15}
{"Sequence": "GGAGACCUAUGAUAUGUUCCUACUACCUGA", "Lt Gt Eq": "<", "Readout Value": 0.0001}
{"Sequence": "GGAGACCUUAGUAUACAACCUACUACGUCA", "Lt Gt Eq": "=", "Readout Value": 0.0155}
{"Sequence": "GGAGACCUUACUAUUCUACCUACUACCUCA", "Lt Gt Eq": "=", "Readout Value": 0.124}
{"Sequence": "GGAGAGGAUACUAUACAACCUAACUACCUCA", "Lt Gt Eq": "=", "Readout Value": 0.0231}
{"Sequence": "GGAGACCUAUGAUAACAACCUACUACCUACA", "Lt Gt Eq": "=", "Readout Value": 0.0036}
{"Sequence": "GGAGACCUAUGAAUACAUCCUACAACCUCA", "Lt Gt Eq": "=", "Readout Value": 0.0119}
{"Sequence": "GGAGACCUAUGAAUACAACCUGCUACCUCA", "Lt Gt Eq": "=", "Readout Value": 0.00274}
{"Sequence": "GGAGACGAUACUAUACAACCUACUCCCUCA", "Lt Gt Eq": "=", "Readout Value": 0.106}
{"Sequence": "GGAGACGAUAGUAUUCAACCUACUACCUCA", "Lt Gt Eq": "=", "Readout Value": 0.156}
{"Sequence": "GGAGAGGAUAUUAUACAACCUACUACCUCA", "Lt Gt Eq": "=", "Readout Value": 0.157}
{"Sequence": "GGAGACCAUACUAUUCAACCUACUUCCUCA", "Lt Gt Eq": "=", "Readout Value": 0.1}
{"Sequence": "GGAGACGAUACUAAACAUCCUACUACCUCA", "Lt Gt Eq": "=", "Readout Value": 0.267}
{"Sequence": "GGAGACGUUACUUUACAACCUACUACCUCA", "Lt Gt Eq": "=", "Readout Value": 0.141}
{"Sequence": "GGAGACCUAACUAUACAACGUACUACCACA", "Lt Gt Eq": "=", "Readout Value": 0.0131}
{"Sequence": "GGAGACCUAACUAUACAACCUACUACCAGA", "Lt Gt Eq": "=", "Readout Value": 0.124}
{"Sequence": "GGAGACCAUACUAUUCAACCUAGUACCUCA", "Lt Gt Eq": "=", "Readout Value": 0.0559}
